tested.on: UniProt:P31652
Sequence (P31652 whole entry): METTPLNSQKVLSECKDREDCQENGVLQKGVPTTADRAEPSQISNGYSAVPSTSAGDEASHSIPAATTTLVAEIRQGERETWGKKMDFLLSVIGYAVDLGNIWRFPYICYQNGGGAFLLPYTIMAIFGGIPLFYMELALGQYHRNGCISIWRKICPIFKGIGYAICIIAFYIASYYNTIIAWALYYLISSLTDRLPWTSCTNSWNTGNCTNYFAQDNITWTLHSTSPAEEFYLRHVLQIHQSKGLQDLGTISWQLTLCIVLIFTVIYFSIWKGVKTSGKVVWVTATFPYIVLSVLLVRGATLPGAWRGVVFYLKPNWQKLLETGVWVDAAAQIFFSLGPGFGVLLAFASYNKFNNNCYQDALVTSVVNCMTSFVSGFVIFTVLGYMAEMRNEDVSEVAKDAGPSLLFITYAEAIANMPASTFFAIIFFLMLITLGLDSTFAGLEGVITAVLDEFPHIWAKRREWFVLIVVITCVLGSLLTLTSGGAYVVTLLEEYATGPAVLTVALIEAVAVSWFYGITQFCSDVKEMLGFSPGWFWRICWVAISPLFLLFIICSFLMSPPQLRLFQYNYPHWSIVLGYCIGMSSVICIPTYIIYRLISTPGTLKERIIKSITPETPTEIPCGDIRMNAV
test.summary: Inhibitory effect on [3H]5-HT uptake in rat synaptosome
condition.details: rat brain synaptosomes, 0.1 μCi [3H]5-HT, 37° C., 15 minutes
pIC50: −log10 of the molar value.
value.type: pIC50

Below, 4 compounds whose answers are already recorded.
compound | pIC50
O=C1COCCN1c1ccc(N2CCN(CCCc3c[nH]c4ccc(F)cc34)CC2)cc1 [Example 7] | 8.14
N#Cc1ccc2[nH]cc(CCCCN3CCN(c4ccc(N5CCOCC5=O)cc4)CC3)c2c1 [Example 6] | 8.66
N#Cc1ccc2[nH]cc(CCCN3CCN(c4ccc(-n5cc(F)cc(F)c5=O)cc4)CC3)c2c1 [Example 26] | 8.89
Cc1ccn(-c2ccc(N3CCN(CCCCc4c[nH]c5ccc(C#N)cc45)CC3)cc2)c(=O)c1 [Example 17] | 8.77

(a) O=c1ccccn1-c1ccc(N2CCN(CCCc3c[nH]c4ccc(F)cc34)CC2)cc1 [Example 12]
(b) O=C1CCCCN1c1ccc(N2CCN(CCCCc3c[nH]c4ccc(F)cc34)CC2)cc1 [Example 1]
[Q] Between the two listed entries a and b , which has its pIC50 at the higher number? Pick one and reply with its label.
[A] b
(b: 8.37, a: 8.15)
